experimental.system: human VR1 (Homo sapiens, UniProt Q8NER1)
Construct: expressed in transfected cells; host or cells: HEK293
Sequence (Q8NER1 whole entry): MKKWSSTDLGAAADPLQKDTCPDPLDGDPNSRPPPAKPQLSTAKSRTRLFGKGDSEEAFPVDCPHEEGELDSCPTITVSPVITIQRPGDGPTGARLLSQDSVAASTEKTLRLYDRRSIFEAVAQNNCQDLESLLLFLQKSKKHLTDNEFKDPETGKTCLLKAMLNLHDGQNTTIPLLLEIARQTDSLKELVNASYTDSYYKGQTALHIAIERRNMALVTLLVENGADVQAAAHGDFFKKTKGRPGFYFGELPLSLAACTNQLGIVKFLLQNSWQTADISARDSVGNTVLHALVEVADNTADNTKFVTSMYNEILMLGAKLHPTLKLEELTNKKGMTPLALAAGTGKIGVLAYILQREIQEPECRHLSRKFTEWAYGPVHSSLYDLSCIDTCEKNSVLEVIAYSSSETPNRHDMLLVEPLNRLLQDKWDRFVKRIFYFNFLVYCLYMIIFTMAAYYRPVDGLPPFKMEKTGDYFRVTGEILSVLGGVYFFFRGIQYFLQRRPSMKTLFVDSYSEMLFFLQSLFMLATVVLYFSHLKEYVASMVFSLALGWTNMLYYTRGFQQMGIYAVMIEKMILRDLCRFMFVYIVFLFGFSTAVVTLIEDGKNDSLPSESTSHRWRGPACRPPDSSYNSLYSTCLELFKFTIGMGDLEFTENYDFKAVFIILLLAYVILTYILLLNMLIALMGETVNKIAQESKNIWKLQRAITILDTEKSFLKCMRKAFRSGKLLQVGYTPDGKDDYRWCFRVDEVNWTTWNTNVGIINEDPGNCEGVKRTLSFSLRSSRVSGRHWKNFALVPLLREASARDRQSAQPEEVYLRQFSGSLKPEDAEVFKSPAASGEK
test: Human VR1 functional assay (FLIPR intracellular Ca2+)
Type: cell-based
measurement.setup: inhibition of capsaicin response, 5 μM; read-out: h % I (5 μM)
metric.name: inhibition at 5 µM (%)

>>> print(df.to_string())
                                 smiles_str  observed
0  Cc1cc(NC(=O)CCc2ccc(C(C)(C)C)cc2)cnc1-c1cccc(C#N)c1       105
1  Cc1cc(NC(=O)CCc2ccc(C(C)(C)C)cc2)cnc1-c1ccc(CO)cc1       100
2  O=C(CCc1ccc(C(F)(F)F)cc1)Nc1ccc(-c2cccnc2F)c(C(F)(F)F)c1        93
3  O=C(CCc1ccc(C(F)(F)F)cc1)Nc1cnc(-c2ccc(CO)cc2)c(C(F)(F)F)c1       100
4  Cc1cc(NC(=O)CCc2ccc(C(F)(F)F)cc2)cnc1-n1cnc(Cl)c1Cl       100
5  CC(C)(C)c1ccc(CCC(=O)Nc2cnc(-n3ccnc3)c(C(F)(F)F)c2)cc1       100
6  O=C(CCc1ccc(C(F)(F)F)cc1)Nc1ccc(-n2ccnc2)c(C(F)(F)F)c1       100
7  Cc1cc(NC(=O)CCc2ccc(C(C)(C)C)cc2)cnc1-c1ccccc1O        96
